B1: TCAP (parent)
chain: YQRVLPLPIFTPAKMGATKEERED

# Variants of: B1
# test: protein stability index of a GFP-peptide fusion (GPS, HEK-293T) (PSI 1-6); higher = more stable;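 also: lentivirally expressed fusions sorted by FACS into six bins by GFP to DsRed ratio, PSI derived from sequencing read proportions per bin multiplied by bin number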
# condition notes: c terminus: a fixed tail appended
parameter: protein stability index
Write the number on its own, no unit after it.

query: Entry F10S : reported protein stability index = ?
result: 4.06

query: Entry A13K : reported protein stability index = ?
result: 2.44

query: Entry E21V : reported protein stability index = ?
result: 2.35

query: Entry L5T : reported protein stability index = ?
result: 1.98

query: Entry G16I : reported protein stability index = ?
result: 1.92

query: Entry L7T : reported protein stability index = ?
result: 1.73

query: Entry I9M : reported protein stability index = ?
result: 3.07

query: Entry E20W : reported protein stability index = ?
result: 2.2

query: Entry K14M : reported protein stability index = ?
result: 1.77

query: Entry A13Y : reported protein stability index = ?
result: 1.86

query: Entry E20I : reported protein stability index = ?
result: 2.04

query: Entry G16K : reported protein stability index = ?
result: 1.7

query: Entry P12Q : reported protein stability index = ?
result: 3.84

query: Entry P8D : reported protein stability index = ?
result: 1.57

query: Entry E20L : reported protein stability index = ?
result: 2.13

query: Entry T18A : reported protein stability index = ?
result: 1.79

query: Entry E23C : reported protein stability index = ?
result: 2.19

query: Entry P8L : reported protein stability index = ?
result: 1.64

query: Entry L7N : reported protein stability index = ?
result: 1.54

query: Entry E23K : reported protein stability index = ?
result: 1.87

query: Entry T11I : reported protein stability index = ?
result: 2.68
